# target.under.test: His-tagged BRD7 BD (Homo sapiens, UniProt Q9NPI1)
# Sequence (Q9NPI1 131-235 limits assumed): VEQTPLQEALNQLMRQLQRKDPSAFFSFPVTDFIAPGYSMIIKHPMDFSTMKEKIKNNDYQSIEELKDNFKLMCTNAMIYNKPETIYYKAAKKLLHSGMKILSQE
# method.summary: Thermal shift assay
# Type: binding
# condition.label: compounds at 25, 10, or 1 μM
readout: stabilization / Tm increase of BRD7 BD (TSA)

1. COc1ccc(-c2ccc3c(C)cc(=O)n(C)c3c2)c(C)n1 | increased the Tm
2. COc1ccc(-c2ccc3c(C)cc(=O)n(C)c3c2)c(OC)n1 | increased the Tm
